Below is a list of entries, each paired with its recorded activation value.
experiment: qHTS assay for small molecule activators of the nuclear factor-kappa B (NF-kB) signaling pathway (AID 651749); settings: NF-kB-bla ME-180 cells, beta-lactamase FRET ratio, 16 h; hits give high values; also: series mostly up to about 77 µM; % of control where 0% means no effect
Records with an inconclusive call do not appear. The source made the active and inactive calls. Calls follow the shape of the dose curve; as a rule, active = well fitted activation curve with a large enough effect in the signal ratio; inconclusive = small, poorly fitted or top-dose-only effect, or a change in a side signal; inactive = flat fitted curve, though single readings scatter; the % refers to the signal ratio.

Solved entries:
CCCCC(CC)COC(=O)c1ccc(C(=O)OCC(CC)CCCC)c(C(=O)OCC(CC)CCCC)c1 (stereo not given)	1.1% (inactive)
CCCCOC(C)=O	-1.17% (inactive)
Nc1cc(Cl)cc(Cl)c1	0.8% (inactive)

Item: CN(C)N=O | activation: -0.838% (inactive)

Entry CCCCC(=O)Cl ; activation = -1.31% (inactive)

Looking up C=CC=O , I found its activation recorded as -0.542% (inactive)

The recorded activation for entry ClC(Cl)c1ccccc1 equals -0.312% (inactive)

Noted for CCN(CC)N=O : its activation reads 0.914% (inactive)
